The measured values listed here are drawn from paper PMC9090415.

# ASSAY TARGET: P. falciparum apicoplast DNA polymerase (Pf-apPOL) (Plasmodium falciparum)
# Sequence (Q8ILY1 entry or part of it): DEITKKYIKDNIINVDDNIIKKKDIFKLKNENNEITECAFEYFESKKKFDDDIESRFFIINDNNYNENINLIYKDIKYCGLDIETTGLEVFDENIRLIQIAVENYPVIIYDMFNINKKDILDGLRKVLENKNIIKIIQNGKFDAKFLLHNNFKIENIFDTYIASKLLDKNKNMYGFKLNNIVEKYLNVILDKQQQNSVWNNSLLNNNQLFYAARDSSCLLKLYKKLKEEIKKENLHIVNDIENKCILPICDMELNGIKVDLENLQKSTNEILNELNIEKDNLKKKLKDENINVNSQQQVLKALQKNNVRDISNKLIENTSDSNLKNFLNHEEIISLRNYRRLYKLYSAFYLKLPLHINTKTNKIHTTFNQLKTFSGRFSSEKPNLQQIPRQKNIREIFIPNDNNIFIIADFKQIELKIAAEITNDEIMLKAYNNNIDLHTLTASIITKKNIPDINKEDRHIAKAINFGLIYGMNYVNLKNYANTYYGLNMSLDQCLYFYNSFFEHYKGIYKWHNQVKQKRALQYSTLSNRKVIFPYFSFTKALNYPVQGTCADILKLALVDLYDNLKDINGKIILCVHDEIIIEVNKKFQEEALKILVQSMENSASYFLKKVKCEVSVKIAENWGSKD
# ASSAY NOTES: Fluorescence-based high-throughput DNA polymerase assay (molecular beacon), primary screen and dose-response
# Type: biochemical
# CONDITION SUMMARY: DRC-1; 10'; concentration 5
Answer each item with its documented % inhibition Apo pol 10'.
The reply should contain only the number, in %.

Just so you know, measured % inhibition Apo pol 10' for CCOc1ccccc1-c1nc(-c2ccc(=O)[nH]c2)no1 [Molecule 76, CCOc1ccccc1c1onc(n1)c1ccc(=O)[nH]c1] came out at 11.2745

Just so you know, measured % inhibition Apo pol 10' for `O=[N+]([O-])c1cc2c(cc1CN1CCN(c3cccc(Cl)c3)CC1)OCO2` came out at 19.449

Just so you know, measured % inhibition Apo pol 10' for `COc1cccc(Oc2c(C(F)(F)F)oc3cc(OC(=O)N(C)C)ccc3c2=O)c1` came out at 12.9509

Just so you know, measured % inhibition Apo pol 10' for `O=[N+]([O-])c1cc2c(cc1CN1CCCCCC1)OCO2` came out at 8.194

Just so you know, measured % inhibition Apo pol 10' for O=C(c1c[nH]c2ncccc12)N1CCCC1 [Molecule 63, O=C(c1c[nH]c2c1cccn2)N1CCCC1] came out at 6.34

Just so you know, measured % inhibition Apo pol 10' for `O=[N+]([O-])c1ccc(/C=C/c2ccc3ccccc3n2)o1` came out at 49.9982

Just so you know, measured % inhibition Apo pol 10' for `O=C(Nc1nnc(-c2cccs2)o1)c1ccc([N+](=O)[O-])o1` came out at 8.378

Just so you know, measured % inhibition Apo pol 10' for CC(NC(=O)Cc1cc(=O)[nH]c(SCc2cccc(Cl)c2)n1)c1ccccc1 (centres unmarked) came out at 0

Just so you know, measured % inhibition Apo pol 10' for `COc1cc(/C=C2\S/C(=N/C(C)=O)NC2=O)cc(Br)c1OCC(=O)O` came out at 4.738

Just so you know, measured % inhibition Apo pol 10' for `O=C1c2ccccc2C(=O)N1Oc1ccc([N+](=O)[O-])c([N+](=O)[O-])c1` came out at 12.8299

Just so you know, measured % inhibition Apo pol 10' for `COc1ccc(S(=O)(=O)/N=C2\NC(=O)/C(=C3\C(=O)Nc4ccc([N+](=O)[O-])cc43)S2)cc1` came out at 36.9179

Just so you know, measured % inhibition Apo pol 10' for CSCCC(C)(O)CNC(=O)C1CC1 (centres unmarked) came out at 5.1384

Just so you know, measured % inhibition Apo pol 10' for O=C(Cn1ccc2c(=O)[nH]ccc21)Nc1cc(F)ccc1F [Molecule 42, O=C(Cn1ccc2c1cc[nH]c2=O)Nc1cc(F)ccc1F] came out at 13.4677

Just so you know, measured % inhibition Apo pol 10' for `O=C1N/C(=N/c2ccccc2Cl)S/C1=C/c1ccc([N+](=O)[O-])o1` came out at 28.3365

Just so you know, measured % inhibition Apo pol 10' for `Cc1ccc(NC(=O)C2CCN(C(=O)c3cc4ccsc4[nH]3)CC2)c(Br)c1` came out at 36

Just so you know, measured % inhibition Apo pol 10' for `COCC(=O)Nc1c(-c2cccc(F)c2)nc2cc(C)ccn12` came out at 30.033

Just so you know, measured % inhibition Apo pol 10' for `CC(C)(C)OC(=O)COc1ccc2cc(-c3ccccc3)c(=O)oc2c1` came out at -5.666

###

# ASSAY TARGET: bacteriophage T4 DNA polymerase (Enterobacteria phage T4)
# Construct: made in house
# Sequence (P04415 whole entry): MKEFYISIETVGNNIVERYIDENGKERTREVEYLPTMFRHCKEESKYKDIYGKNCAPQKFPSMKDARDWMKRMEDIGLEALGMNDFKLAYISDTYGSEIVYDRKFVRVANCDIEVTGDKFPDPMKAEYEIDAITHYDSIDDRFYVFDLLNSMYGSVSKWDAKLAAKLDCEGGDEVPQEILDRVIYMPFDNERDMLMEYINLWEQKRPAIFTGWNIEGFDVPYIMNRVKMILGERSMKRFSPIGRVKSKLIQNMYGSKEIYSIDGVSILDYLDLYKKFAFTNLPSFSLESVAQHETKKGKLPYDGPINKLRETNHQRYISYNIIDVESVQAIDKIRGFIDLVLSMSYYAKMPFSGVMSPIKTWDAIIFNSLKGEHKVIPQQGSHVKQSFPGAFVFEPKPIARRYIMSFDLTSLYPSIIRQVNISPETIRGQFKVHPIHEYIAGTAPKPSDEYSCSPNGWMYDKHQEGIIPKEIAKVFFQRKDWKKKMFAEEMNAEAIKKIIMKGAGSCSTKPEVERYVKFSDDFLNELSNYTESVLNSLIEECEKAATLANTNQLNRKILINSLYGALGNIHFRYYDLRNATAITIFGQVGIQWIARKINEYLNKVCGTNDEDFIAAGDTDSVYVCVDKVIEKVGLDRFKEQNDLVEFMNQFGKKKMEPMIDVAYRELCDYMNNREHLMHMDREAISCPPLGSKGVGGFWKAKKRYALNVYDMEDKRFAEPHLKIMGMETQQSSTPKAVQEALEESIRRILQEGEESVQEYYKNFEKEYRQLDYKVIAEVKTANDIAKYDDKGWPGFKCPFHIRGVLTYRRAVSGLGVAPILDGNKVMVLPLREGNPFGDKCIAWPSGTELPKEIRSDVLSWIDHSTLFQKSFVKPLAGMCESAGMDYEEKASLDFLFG
# ASSAY NOTES: Counter-screen against bacteriophage T4 DNA polymerase
# Assay type: biochemical
# CONDITION SUMMARY: DRC-2; read at 10'; concentration 10
Answer each item with its documented % inhibition T4 10' 10.
The reply should contain only the number, in %.

Just so you know, measured % inhibition T4 10' 10 for Cc1cccc(-c2noc(C(=O)NNC(=O)C(Cl)(Cl)Cl)n2)c1 [KU0266208] came out at -5

Just so you know, measured % inhibition T4 10' 10 for COc1ccc(/C=C/c2cc(C(=O)O)c3ccccc3n2)cc1 [Molecule 5, COc1ccc(cc1)/C=C/c1nc2ccccc2c(c1)C(=O)O] came out at 18

Just so you know, measured % inhibition T4 10' 10 for O=C(c1ccccc1)N1CCc2c(nc3cc(-c4ccccc4)[nH]n3c2=O)C1 [Molecule 30] came out at -11

Just so you know, measured % inhibition T4 10' 10 for CC(=O)OCC1=C(C(=O)[O-])N2C(=O)[C@@H](NC(=O)Cc3cccs3)[C@H]2SC1.[Na+] [Molecule 73] came out at 12

Just so you know, measured % inhibition T4 10' 10 for CCCc1ccc(Oc2coc3cc(OC)ccc3c2=O)cc1 [KU0193249] came out at 0.369

Just so you know, measured % inhibition T4 10' 10 for Cn1nc(-c2nc(-c3ccccc3)no2)c2c1CCN(C(=O)Cc1cccs1)C2 [Molecule 58] came out at 17

Just so you know, measured % inhibition T4 10' 10 for N#Cc1c(O)nc(N2CCCCC2)nc1-c1ccc2c(c1)OCO2 [KU0083146] came out at -0.482

Just so you know, measured % inhibition T4 10' 10 for Cc1ccsc1Cn1c(C)ccc1C [Molecule 70, Cc1ccsc1Cn1c(C)ccc1C] came out at 10

Just so you know, measured % inhibition T4 10' 10 for Cc1nc(C)c2c(n1)N(CC1CCCCC1)C(=O)CC2 [KU0218606] came out at 6

Just so you know, measured % inhibition T4 10' 10 for COc1ccc(C2CC(c3ccc(Cl)cc3Cl)Nc3nc(N)nn32)cc1OC (centres unmarked) [Molecule 43] came out at -1.16

Just so you know, measured % inhibition T4 10' 10 for O=C(CCc1csc(NC(=O)Nc2ccccc2)n1)Nc1nc2ccccc2s1 [KU0177354] came out at 9

###

# ASSAY TARGET: P. falciparum apicoplast DNA polymerase (Pf-apPOL) (Plasmodium falciparum)
# ASSAY NOTES: Fluorescence-based high-throughput DNA polymerase assay (molecular beacon), primary screen and dose-response
# Format: biochemical
# CONDITION SUMMARY: DRC-1; 90'; concentration 2.5
REPORTED METRIC: % inhibition Apol 90' (%)
The reply should contain only the number, in %.

Just so you know, measured % inhibition Apol 90' for `CCCCOC(=O)CCCCCN1C(=O)C(=Cc2ccc(OC)cc2)SC1=S` came out at 3.6918

Just so you know, measured % inhibition Apol 90' for `Cc1cccc2c(C(=O)NC(C)C)cc(N(C)C)nc12` came out at 2.22

Just so you know, measured % inhibition Apol 90' for `CC(C)(C)c1cc(C(=O)C(C#N)=NNc2cccc(Cl)c2)no1` came out at 12.918

Just so you know, measured % inhibition Apol 90' for `Cc1ccccc1C(=O)N1CCc2c(nc3cc(-c4ccccc4)[nH]n3c2=O)C1` came out at 1.828

Just so you know, measured % inhibition Apol 90' for `Cc1ccc(C)c(CSc2nc(C3CCCCC3)c(C#N)c(=O)[nH]2)c1` came out at 7.563

Just so you know, measured % inhibition Apol 90' for `O=c1[nH]c2ccc([N+](=O)[O-])cc2c(-c2ccccc2)c1Sc1nc2ccccc2o1` came out at 8.412

Just so you know, measured % inhibition Apol 90' for `O=C(Nc1ccc2c(c1)Cc1cc(NC(=O)c3ccco3)ccc1-2)c1ccco1` came out at -0.5506

Just so you know, measured % inhibition Apol 90' for `CCCCc1ccc(NC(=O)CSc2nc(O)c(C#N)c(C3CCCCC3)n2)c(C)c1` came out at 1.126

Just so you know, measured % inhibition Apol 90' for `O=C(O)c1c(F)c(F)c(-c2c(F)c(F)c(C(=O)O)c(F)c2F)c(F)c1F` came out at 3.377

Just so you know, measured % inhibition Apol 90' for `CN(C)S(=O)(=O)Oc1ccc(-c2noc(-c3ccc(Oc4cc(Cl)cc(Cl)c4)o3)n2)cc1` came out at 1.99

Just so you know, measured % inhibition Apol 90' for `Cc1cc(C)c2c(O)nc(SCC(=O)c3ccc(O)c(O)c3)nc2n1` came out at 42.8406

Just so you know, measured % inhibition Apol 90' for CCCCCCCCCCCC1SCC(C(=O)O)N1C(C)=O (centres unmarked) came out at 2.632

Just so you know, measured % inhibition Apol 90' for `O=[N+]([O-])c1cc2c(cc1CN1CCN(c3cccc(Cl)c3)CC1)OCO2` came out at 0.2927

Just so you know, measured % inhibition Apol 90' for `Oc1ccc(N=Nc2ccccc2)c(O)c1` came out at -0.1987

Just so you know, measured % inhibition Apol 90' for `O=C(Nc1nnc(-c2cccs2)o1)c1ccc([N+](=O)[O-])o1` came out at 1.699

Just so you know, measured % inhibition Apol 90' for O=C(Cn1ccc2c(=O)[nH]ccc21)Nc1cccc(Cl)c1 [Molecule 23, O=C(Cn1ccc2c1cc[nH]c2=O)Nc1cccc(c1)Cl] came out at -3.118

Just so you know, measured % inhibition Apol 90' for `COc1ccc(C(=O)Nc2cccc(-c3nc4ncccc4o3)c2)cc1[N+](=O)[O-]` came out at 2.478
